# Tested on: JNK1;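 also: KINOMEscan kinase panel screen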
# Construct: gene MAPK8
# test_parameters: concentration: 1 μM, replicates: in singlicate; n = 1
Could you please report measured %Inh for the items listed next?
A number alone suffices; assume %.

Prompt: Data request, read-out %Inh, for `Fc1cccc(CSc2nnc(-c3ccc4c(c3)CCO4)o2)c1`
Response: 8

Prompt: Fill in: %Inh of COc1cc2ncn(-c3cc(OCCCc4ccccc4)c(C(N)=O)s3)c2cc1OC [GSK205189] is ___
Response: 15

Prompt: I have this molecule here, FC(F)(F)c1ccc(-c2ncn(CCCN3CCOCC3)c2-c2ccncc2)cc1 [SB-217780] , and I need its recorded %Inh.
Response: 55

Prompt: Which %Inh is reported for this molecule? O=C(NCCNc1ccnc(Nc2ccc(F)cc2)n1)Nc1ccc2c(c1)OCO2 [GSK1379882]
Response: 22

Prompt: Reported %Inh, molecule OCCCNc1nccc(-c2c(-c3cccc(C(F)(F)F)c3)nn3cc(C(F)(F)F)ccc23)n1 [GW630813] : ____
Response: 0

Prompt: What does the data say about its %Inh? Entry: O=C(Nc1ccc2c(c1)OCO2)NC1CCN(c2ccnc(NCc3ccc(F)cc3)n2)CC1 [GSK1379859]
Response: 0

Prompt: Any idea what its %Inh is? The molecule is CCS(=O)(=O)c1ccc(OC)c(Nc2ncc(-c3ccc(F)cc3)o2)c1.Cl [GW591947]
Response: 2

Prompt: Which %Inh reading was recorded for the molecule CN1C(=O)C(Nc2cc(Cl)c(O)c(Cl)c2)=C(c2ccc(Cl)cc2)C1=O [SB-404321] ?
Response: 24

Prompt: Give the measured %Inh of COc1cc(Nc2ccnc3ccc(C(F)(F)F)cc23)cc(OC)c1OC [GW577382] .
Response: 39

Prompt: Need %Inh, item `COc1cc(OC)cc(-c2cc3cnc(N)nc3nc2NC(=O)NC(C)(C)C)c1`
Response: 0

Prompt: Could you tell me which %Inh is on file for O=C(Nc1n[nH]c2cc(-c3ccccc3F)ccc12)C1CC1 [SB-733371] ?
Response: 33

Prompt: Quick check: %Inh of COc1cccc(-n2cnc3c(N)ncnc32)c1 [SKF-97416] ?
Response: 0

Prompt: What measured %Inh goes with `CCc1nc(-c2cccc(C)c2)c(-c2ccncc2)s1` ?
Response: 57

Prompt: Could you tell me which %Inh is on file for `COc1ccc(-c2coc3ccc(-c4nnc(SCc5cccc(C#N)c5)o4)cc23)cc1` ?
Response: 22

Prompt: Quick one: %Inh of O=C(Nc1n[nH]c2nc(-c3ccccc3)c(Br)cc12)C1CC1 [SB-708998] ?
Response: 29

Prompt: Item under review: `CCc1ccc(-c2ccc3c(c2)-c2nn(C)cc2S(=O)(=O)N3C)cc1` . Reported %Inh?
Response: 0

Prompt: May I ask what %Inh has been recorded for `COc1ccc(-c2cc3c(C)nc(N)nc3n([C@H]3CC[C@H](O)CC3)c2=O)cn1` ?
Response: 0

Prompt: Endpoint output: %Inh of Nc1nc(-c2ccccc2F)c(-c2ccnc3ccccc23)s1 [GW560459] . Value?
Response: 56

Prompt: Need %Inh, item `COc1ccc(-c2cc3c(C)nc(N)nc3n([C@H]3CC[C@H](OCCO)CC3)c2=O)cn1`
Response: 0
